Every entry's value here was drawn from patent US7405205B2.

Test system: T24 bladder cell carcinoma
protocol-summary: Relative colony forming efficiency after antisense treatment (Table 13)
Type: cell-based, human
condition-label: 0.2 μM antisense oligodeoxyribonucleotide phosphorothioate; T24 cells; averages of 2-8 determinations
Strand notation (5' to 3'): a small letter for the sugar, then the base; units joined by * are phosphorothioate-linked, units joined directly phosphodiester-linked; [ ] holds rarer units or linkages, { } end groups; capitals alone tell only the bases. d = 2'-deoxy (DNA)
Known Reduced relative colony forming efficiency, expressed as % inhibition, T24 of a selection of sequences
Report the figure along with its unit, number first.

AAACGGCTTCTCACACATAT (antisense; DNA, all phosphorothioate, methylation of C not given here) [AS-II-2151-20] :: 79.83%

Query string: Look at this sequence and give its reported Reduced relative colony forming efficiency, expressed as % inhibition, T24. TCAGCATCCAAGGTAAAAGA (DNA, all phosphorothioate, methylation of C not given here) [AS-II-1338-20]
Result string: 63.16%

Query string: Please give the measured Reduced relative colony forming efficiency, expressed as % inhibition, T24 for this sequence: CCTCCTCGGCGGTCCAAAAG (dC*dC*dT*dC*dC*dT*dC*dG*dG*dC*dG*dG*dT*dC*dC*dA*dA*dA*dA*dG; antisense) [AS-II-494-20]
Result string: 54.23%

Query string: Recorded Reduced relative colony forming efficiency, expressed as % inhibition, T24 for GAAGTCAGCATCCAAGGTAA (DNA, all phosphorothioate, methylation of C not given here) [AS-II-1342-20] , please?
Result string: 59.76%

Query string: So what's the measured Reduced relative colony forming efficiency, expressed as % inhibition, T24 for this one? GTATTGCTTCATTAGAGTGC (DNA, all phosphorothioate, methylation of C not given here) [AS-II-1144-20]
Result string: 62.9%

Query string: Quick one: Reduced relative colony forming efficiency, expressed as % inhibition, T24 for TCTGCCTTCTTCTTGACACA (antisense; DNA, all phosphorothioate, methylation of C not given here) [AS-II-798-20] ?
Result string: 84.72%
